ASSAY SYSTEM: UniProt Q16531
Sequence (Q16531 whole entry): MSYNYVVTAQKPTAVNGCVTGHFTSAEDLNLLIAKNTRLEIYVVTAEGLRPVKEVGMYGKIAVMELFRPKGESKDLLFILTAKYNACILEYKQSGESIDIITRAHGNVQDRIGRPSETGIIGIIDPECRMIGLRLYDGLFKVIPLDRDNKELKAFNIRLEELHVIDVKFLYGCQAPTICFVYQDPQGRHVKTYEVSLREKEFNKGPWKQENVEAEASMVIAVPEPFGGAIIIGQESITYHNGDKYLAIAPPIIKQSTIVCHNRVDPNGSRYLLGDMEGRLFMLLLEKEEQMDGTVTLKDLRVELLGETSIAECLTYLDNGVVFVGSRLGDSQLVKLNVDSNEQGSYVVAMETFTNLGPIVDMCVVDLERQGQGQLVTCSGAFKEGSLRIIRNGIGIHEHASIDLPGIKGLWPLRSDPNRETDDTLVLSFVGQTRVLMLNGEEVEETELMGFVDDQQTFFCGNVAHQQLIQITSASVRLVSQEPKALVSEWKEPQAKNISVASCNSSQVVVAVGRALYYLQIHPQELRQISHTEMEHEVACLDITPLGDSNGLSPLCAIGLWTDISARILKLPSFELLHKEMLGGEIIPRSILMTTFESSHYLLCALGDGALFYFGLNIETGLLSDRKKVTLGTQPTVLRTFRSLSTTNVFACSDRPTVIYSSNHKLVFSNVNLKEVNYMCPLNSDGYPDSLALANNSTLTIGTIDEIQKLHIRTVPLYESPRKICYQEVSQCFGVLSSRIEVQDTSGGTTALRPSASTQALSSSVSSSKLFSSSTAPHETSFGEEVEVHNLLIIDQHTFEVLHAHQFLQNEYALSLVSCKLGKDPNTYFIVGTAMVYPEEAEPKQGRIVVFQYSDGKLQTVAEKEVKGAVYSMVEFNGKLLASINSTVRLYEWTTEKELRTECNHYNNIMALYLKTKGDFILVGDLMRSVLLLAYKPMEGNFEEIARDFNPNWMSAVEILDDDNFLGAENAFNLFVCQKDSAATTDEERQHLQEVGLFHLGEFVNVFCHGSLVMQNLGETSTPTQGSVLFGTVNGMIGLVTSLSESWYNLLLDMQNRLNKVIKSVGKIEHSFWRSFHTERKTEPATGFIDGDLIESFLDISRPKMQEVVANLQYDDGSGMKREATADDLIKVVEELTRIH
EXPERIMENT SUMMARY: Surface plasmon resonance (SPR) binding assay to immobilized His-DDB1
PROTOCOL CONDITIONS: SPR, steady state affinity model, 25° C.; read-out: Binding (DDB1 binder activities, Kd)
Kd overview

Examples from the recorded data:
Challenge: Retrieve Kd measured for O=C(O)CCc1ccccc1C(=O)Nc1ncc([N+](=O)[O-])s1 [B-88] and print it.
Response given: 20 to 100 µM

Challenge: Retrieve Kd measured for CCCCNc1ccc(C(=O)Nc2ncc(-c3ccccc3)s2)c(-c2ccccc2)c1 [B-120] and print it.
Response given: 20 to 100 µM

Challenge: Retrieve Kd measured for CC(=O)Nc1ccccc1C(=O)Nc1nc(C2CC2)c([N+](=O)[O-])s1 [B-32] and print it.
Response given: 20 to 100 µM

New cases:
Challenge: Retrieve Kd measured for CC(=O)Nc1ccccc1C(=O)Nc1ncc(-c2ccccc2)s1 [B-45] and print it.
Response given: < 20 µM

Challenge: Retrieve Kd measured for CC(=O)Nc1ccccc1C(=O)Nc1ccc(Cl)cc1 [B-58, 2-Acetamido-N-(4-chlorophenyl)benzamide] and print it.
Response given: 20 to 100 µM

Challenge: Retrieve Kd measured for CNC(=O)c1ccc(-c2cccc(O)c2)nc1NCC1CC1 [B-143] and print it.
Response given: 20 to 100 µM
